# Test system: KMS12PE
# assayText: Cell viability assay, KMS12PE
# Assay type: cell-based
# measurementSetup: Homo sapiens, KMS-12-PE, multiple myeloma (Example 90 table)
property: IC50 (µM)
Give bare numbers, in µM.

Query block: GET /values?readout=IC50&item= c1cc(-c2ccc3nc(N4CCOCC4)ncc3c2)nc(Nc2cnn(C3CCNCC3)c2)n1
Result block: 2.81

* * *

# Tested on: HEL
# assayText: Cell viability assay, HEL
# Format: cell-based
# measurementSetup: Homo sapiens, acute myeloid leukemia, cell viability, 72 hours
property: IC50
Please report the result as a number followed by the unit.

Query block: GET /values?readout=IC50&item= CC(C)NC(=O)c1ccc(Nc2nccc(-c3ccc4nc(N5CCCC5)ncc4c3)n2)cc1
Result block: 3.6 µM

* * *

# Test system: SET-2
# assayText: Cell viability assay, SET-2
# Assay type: cell-based
# measurementSetup: Homo sapiens; SET-2, acute myeloid leukemia (Example 90 table)
property: pIC50
Numbers only, as −log10 of the molar value.

Query block: GET /values?readout=pIC50&item= c1cc(-c2ccc3nc(N4CCOCC4)ncc3c2)nc(Nc2cnn(C3CCNCC3)c2)n1 [Example 27]
Result block: 6.19

* * *

# System: HL-60
# assayText: Cell viability assay, HL-60
# Format: cell-based
# measurementSetup: Homo sapiens, HL-60; HL60, acute myeloid leukemia (Example 90 table)
property: pIC50
Answers are plain numbers, as −log10 of the molar value.

Query block: // fetch HL-60 pIC50 for c1cc(-c2ccc3nc(N4CCOCC4)ncc3c2)nc(Nc2cnn(C3CCNCC3)c2)n1
Result block: 5.30

* * *

# systemTested: MYLK4 (Homo sapiens)
# Construct: purchased Reaction Biology Corporation
# Sequence (Q86YV6 whole entry): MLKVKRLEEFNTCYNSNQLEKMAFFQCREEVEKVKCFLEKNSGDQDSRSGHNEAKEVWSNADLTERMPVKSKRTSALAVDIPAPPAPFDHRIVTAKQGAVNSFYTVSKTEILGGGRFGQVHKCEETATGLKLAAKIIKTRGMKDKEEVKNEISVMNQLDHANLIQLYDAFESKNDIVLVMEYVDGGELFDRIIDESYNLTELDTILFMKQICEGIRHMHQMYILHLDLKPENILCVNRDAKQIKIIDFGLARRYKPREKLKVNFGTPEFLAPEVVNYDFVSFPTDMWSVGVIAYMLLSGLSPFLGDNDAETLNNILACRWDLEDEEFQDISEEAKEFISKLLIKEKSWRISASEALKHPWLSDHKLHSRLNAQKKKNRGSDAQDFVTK
# assayText: Enzymatic activity assay (Reaction Biology Corporation), MYLK4
# Assay type: biochemical
pIC50: −log10 of the molar value.
I'd be grateful if you could share measured pIC50 for these entries.

Illustrative cases are given below, each with its answer.
smilesnotation=c1cc(-c2ccc3nc(N4CCCC4)ncc3c2)nc(Nc2ccc(N3CCOCC3)cc2)n1 assayvalue="> 7.30"
smilesnotation=c1cc(-c2ccc3nc(N4CCCC4)ncc3c2)nc(Nc2ccc(N3CCNCC3)cc2)n1 assayvalue="> 7.30"
smilesnotation=c1cc(-c2ccc3nc(N4CCOCC4)ncc3c2)nc(Nc2ccc(N3CCNCC3)cc2)n1 assayvalue="> 7.30"

I would be grateful if you could provide pIC50 for each of the following entries.
1. CC(C)NC(=O)c1ccc(Nc2nccc(-c3ccc4nc(N5CCCC5)ncc4c3)n2)cc1
2. CC(C)NC(=O)c1ccc(Nc2nccc(-c3ccc4nc(N5CCOCC5)ncc4c3)n2)cc1
3. c1cc(-c2ccc3nc(N4CCCC4)ncc3c2)nc(Nc2ccc(N3CCNCC3)nc2)n1

Result block:
1: 7.00 to 7.30; 2: 7.00 to 7.30; 3: > 7.30

* * *

# Test system: TF1
# assayText: Cell viability assay, TF1
# Assay type: cell-based
# measurementSetup: Homo sapiens, TF-1; TF1, acute myeloid leukemia (Example 90 table)
property: pIC50
One number for each entry, as −log10 of the molar value.

Query block: // fetch TF1 pIC50 for c1cc(-c2ccc3nc(N4CCOCC4)ncc3c2)nc(Nc2cnn(C3CCNCC3)c2)n1 [Example 27]
Result block: 4.82

* * *

# Test system: RIVA
# assayText: Cell viability assay, RIVA
# Format: cell-based
# measurementSetup: lymphoma, cell viability, 72 hours
property: IC50

Query block: GET /values?readout=IC50&item= CC(C)NC(=O)c1ccc(Nc2nccc(-c3ccc4nc(N5CCCC5)ncc4c3)n2)cc1 [Example 7]
Result block: > 100 µM

* * *

# Tested on: MEC-1
# assayText: Cell viability assay, MEC-1
# Type: cell-based
# measurementSetup: Homo sapiens, MEC1; MEC-1, lymphoma; cell viability, 72 hours
property: IC50

Query block: GET /values?readout=IC50&item= CC(C)NC(=O)c1ccc(Nc2nccc(-c3ccc4nc(N5CCCC5)ncc4c3)n2)cc1 [Example 7]
Result block: > 100 µM

* * *

# System: RS4; 11
# assayText: Cell viability assay, RS4; 11
# Format: cell-based
# measurementSetup: Homo sapiens; RS4; 11, acute lymphoblastic leukemia; cell viability, 72 hours
property: IC50 (µM)
Answers are plain numbers, in µM.

Query block: GET /values?readout=IC50&item= CC(C)NC(=O)c1ccc(Nc2nccc(-c3ccc4nc(N5CCCC5)ncc4c3)n2)cc1 [Example 7]
Result block: 8.37

* * *

# System: K562 SF3B1 K666N
# assayText: cells
# measurementSetup: Homo sapiens, K562, 72 h
property: pIC50
Give bare numbers, as −log10 of the molar value.

Query block: GET /values?readout=pIC50&item= CC(C)NC(=O)c1ccc(Nc2nccc(-c3ccc4nc(N5CCCC5)ncc4c3)n2)cc1 [Example 7]
Result block: 6.74

* * *

# systemTested: STK17A (Homo sapiens)
# Construct: purchased Reaction Biology Corporation
# assayText: Enzymatic activity assay (Reaction Biology Corporation), STK17A
# Type: biochemical
# measurementSetup: enzymatic activity assay; read-out: IC50 STK17A
property: IC50

Illustrative cases are given below, each with its answer.
smilesnotation=c1cc(-c2ccc3nc(N4CCOCC4)ncc3c2)nc(Nc2ccc(N3CCNCC3)cc2)n1 assayvalue="< 50 nM"
smilesnotation=c1cc(-c2ccc3nc(N4CCCC4)ncc3c2)nc(Nc2ccc(N3CCNCC3)nc2)n1 assayvalue="< 50 nM"

Shift focus to the following entry.
Query block: GET /values?readout=IC50&item= OCCN1CCC(n2cc(Nc3nccc(-c4ccc5nc(N6CCOCC6)ncc5c4)n3)cn2)CC1
Result block: < 50 nM

* * *

# Test system: NALM-6
# assayText: cells
# measurementSetup: Homo sapiens, NALM-6, 72 h
property: IC50 (µM)
Give bare numbers, in µM.

Query block: GET /values?readout=IC50&item= CC(C)NC(=O)c1ccc(Nc2nccc(-c3ccc4nc(N5CCCC5)ncc4c3)n2)cc1
Result block: 5.5

* * *

# Test system: RPMI8226
# assayText: Cell viability assay, RPMI8226
# Format: cell-based
# measurementSetup: Homo sapiens, RPMI-8226; RPMI8226, multiple myeloma; cell viability, 72 hours
property: IC50 (µM)
Answers are plain numbers, in µM.

Query block: // fetch RPMI8226 IC50 for CC(C)NC(=O)c1ccc(Nc2nccc(-c3ccc4nc(N5CCCC5)ncc4c3)n2)cc1 [Example 7]
Result block: 8.96

* * *

# Test system: RS4; 11
# assayText: Cell viability assay, RS4; 11
# Assay type: cell-based
# measurementSetup: Homo sapiens, RS4-11; RS411, acute lymphoblastic leukemia (Example 90 table)
property: IC50 (µM)
Give bare numbers, in µM.

Query block: // fetch RS4; 11 IC50 for c1cc(-c2ccc3nc(N4CCOCC4)ncc3c2)nc(Nc2cnn(C3CCNCC3)c2)n1
Result block: 10.1

* * *

# Tested on: K562
# assayText: Cell viability assay, K562
# Format: cell-based
# measurementSetup: Homo sapiens; K562, chronic myeloid leukemia; cell viability, 72 hours
property: IC50
Please report the result as a number followed by the unit.

Query block: // fetch K562 IC50 for CC(C)NC(=O)c1ccc(Nc2nccc(-c3ccc4nc(N5CCCC5)ncc4c3)n2)cc1
Result block: 4.79 µM

* * *

# systemTested: DDR1 (Homo sapiens, UniProt Q08345)
# Construct: purchased Reaction Biology Corporation
# Sequence (Q08345 19-913): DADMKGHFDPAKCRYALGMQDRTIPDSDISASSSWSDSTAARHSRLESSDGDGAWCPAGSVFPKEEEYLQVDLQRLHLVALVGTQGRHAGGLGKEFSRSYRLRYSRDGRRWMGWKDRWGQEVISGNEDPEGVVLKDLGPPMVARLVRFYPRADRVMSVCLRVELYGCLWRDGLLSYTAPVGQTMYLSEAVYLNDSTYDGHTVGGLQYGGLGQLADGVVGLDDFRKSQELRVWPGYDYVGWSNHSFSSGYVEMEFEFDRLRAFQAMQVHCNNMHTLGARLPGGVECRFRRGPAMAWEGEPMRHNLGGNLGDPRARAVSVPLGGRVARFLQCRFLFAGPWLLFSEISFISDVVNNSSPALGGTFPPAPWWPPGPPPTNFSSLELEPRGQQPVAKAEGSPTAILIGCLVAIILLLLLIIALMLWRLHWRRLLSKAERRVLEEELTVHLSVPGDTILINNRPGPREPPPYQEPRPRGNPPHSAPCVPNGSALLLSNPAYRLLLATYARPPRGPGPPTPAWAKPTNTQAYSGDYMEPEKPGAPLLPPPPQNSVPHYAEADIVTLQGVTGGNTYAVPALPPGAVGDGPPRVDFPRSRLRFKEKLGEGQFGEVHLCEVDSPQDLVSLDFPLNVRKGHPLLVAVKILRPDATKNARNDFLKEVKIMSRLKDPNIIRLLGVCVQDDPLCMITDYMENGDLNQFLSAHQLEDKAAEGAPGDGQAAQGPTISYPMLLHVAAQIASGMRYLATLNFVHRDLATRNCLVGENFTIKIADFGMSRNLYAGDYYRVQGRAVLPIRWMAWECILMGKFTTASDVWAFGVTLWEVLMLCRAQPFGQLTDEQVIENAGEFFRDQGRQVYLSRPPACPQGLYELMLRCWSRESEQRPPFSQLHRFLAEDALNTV
# assayText: Enzymatic activity assay (Reaction Biology Corporation), DDR1
# Assay type: biochemical
property: IC50

Query block: GET /values?readout=IC50&item= c1cc(-c2ccc3nc(N4CCOCC4)ncc3c2)nc(Nc2cnn(C3CCNCC3)c2)n1
Result block: < 50 nM

* * *

# systemTested: STK17A (Homo sapiens)
# Construct: purchased Reaction Biology Corporation
# Sequence (Q9UEE5 1-414): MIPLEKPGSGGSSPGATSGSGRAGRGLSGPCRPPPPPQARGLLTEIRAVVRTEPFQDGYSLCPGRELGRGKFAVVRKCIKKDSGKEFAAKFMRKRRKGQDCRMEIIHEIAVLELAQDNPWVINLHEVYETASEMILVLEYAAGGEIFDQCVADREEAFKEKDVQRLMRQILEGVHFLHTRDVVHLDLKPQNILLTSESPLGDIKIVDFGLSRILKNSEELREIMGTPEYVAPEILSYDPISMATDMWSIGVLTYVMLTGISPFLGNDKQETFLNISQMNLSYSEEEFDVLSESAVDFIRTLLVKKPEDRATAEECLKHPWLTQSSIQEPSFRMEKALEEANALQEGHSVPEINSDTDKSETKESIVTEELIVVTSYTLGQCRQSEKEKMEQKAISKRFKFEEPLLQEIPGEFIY
# assayText: Enzymatic activity assay (Reaction Biology Corporation), STK17A
# Format: biochemical
pIC50: −log10 of the molar value.
property: pIC50

Query block: // fetch STK17A (Homo sapiens) pIC50 for c1cc(-c2ccc3nc(N4CCCC4)ncc3c2)nc(Nc2ccc(N3CCNCC3)cc2)n1 [Example 1]
Result block: 7.00 to 7.30
